Test system: OVCAR-4 ovarian
Experiment: NCI-60 one-dose screen, 48 h (100 = growth as untreated, 0 = no growth, -100 = all killed)
Settings: 10 µM
Method: Growth inhibition of the OVCAR-4 human tumor cell line is measured as a screen for anti-cancer activity. Cells are grown in 96 well plates and exposed to the test compound for 48 hours. Compounds are tested at a single concentration, which is 10^-5 M for most compounds. The reported endpoint is percent growth (GI% or GIPRCNT), where numbers from 0 - 100% represent growth inhibition, and numbers from -100% - 0 represent cell death. For example, a value of 40 represents 60% growth inhibition. […]
This is part of a sample that, as a whole, favours compounds with a hit. Of some 83,000 tested, about 20% had one in any assay.
Lab note: anything with growth at or over 50% counts as true (1); the rest go in false (0).

Example entries and their recorded answers appear below.
| compound | group label |
| --- | --- |
| COC(=O)c1ccc(-n2cc(CCCN(CCNc3ccnc4cc(Cl)ccc34)C(=O)CCC(=O)O[C@@H]3O[C@@H]4OC5(C)CC[C@H]6[C@H](C)CC[C@@H]([C@H]3C)[C@@]46OO5)nn2)cc1 | false (0) |
| C[C@H]1[C@H](OC(=O)CCC(=O)N(CCCc2cn(-c3ccc(CN4CCOCC4)cc3)nn2)CCNc2ccnc3cc(Cl)ccc23)O[C@@H]2OC3(C)CC[C@H]4[C@H](C)CC[C@@H]1[C@@]24OO3 | false (0) |
| O=C([Se]C1C=CCCC1)c1ccc(C(=O)[Se]C2C=CCCC2)s1 (centres undefined) | false (0) |
| CC[C@]12C=CCN3CC[C@@]4(c5ccc(OC)cc5N(C)[C@H]4[C@@](O)(C(=O)OC)[C@@H]1OC(=O)CCCC[P+](c1ccc(OC)cc1)(c1ccc(OC)cc1)c1ccc(OC)cc1)[C@@H]32 | false (0) |
| CC1=C(C=O)C2=C(C)C3(CC3)[C@@](C)(O)C(=O)C2=C1 | false (0) |
| COc1cc(OC)c(S(=O)(=O)N(CCCl)CCCl)cc1C(=O)/C=C/c1ccc(C)cc1 | true (1) |
| CC12OOC(C)(OO1)C2CCC(=O)NCCCNc1ccnc2cc(Cl)ccc12 (centres undefined) | false (0) |

Form field: growth at least 50%? Entry: `CC(C)N=C([Se])NC(=O)c1cccs1` true (1)

* * *

tested on: HCT-15 colon; test: NCI-60 one-dose screen, 48 h (100 = growth as untreated, 0 = no growth, -100 = all killed); details: 10 µM
About 83,000 compounds went through this panel and 20% of them were active in at least one assay; those are over-represented in the sample as a whole.
Quick rule for you: growth under -30% gets MET, anything else gets NOT MET.

| molecule | group label |
| --- | --- |
| C#CCCCN(CCNc1ccnc2cc(Cl)ccc12)C(=O)CCC(=O)O[C@@H]1O[C@@H]2OC3(C)CC[C@H]4[C@H](C)CC[C@@H]([C@H]1C)[C@@]24OO3 | NOT MET |
| O=C(/C=C/c1ccccc1)c1nc2ccccc2n1Cc1ccc(F)cc1 | MET |
| COc1ccc2cc([C@H](C)C(=O)[Se]CCC#N)ccc2c1 | MET |
| CC12OOC(C)(OO1)C2CCC(=O)NCCCNc1ccnc2cc(Cl)ccc12 (stereo unspecified) | MET |
| COc1cc2cc(C(=O)N3C[C@@H](CCl)c4c3cc(OC(=O)N3CCN(C(=O)CCC(=O)N5CCN(C)CC5)[C@@H]5CSSC[C@@H]53)c3ccccc43)[nH]c2c(OC)c1OC | MET |
| CC[C@]12C=CCN3CC[C@@]4(c5ccc(OC)cc5N(C)[C@H]4[C@@](O)(C(=O)OC)[C@@H]1OC(=O)CCCC[P+](C1CCCCC1)(C1CCCCC1)C1CCCCC1)[C@@H]32 | NOT MET |

Does `Cc1ccc2[nH]c(=S)n(-c3ccc(F)cc3)c(=O)c2c1` have growth strictly under -30%? NOT MET

Below -30% on growth? Entry `COC(=O)C[C@](O)(CCCC(C)C)C(=O)O[C@H]1C(OC)=C[C@@]23CCCN2CCc2cc4c(cc2[C@@H]13)OCO4` NOT MET

Say whether its growth is strictly beneath -30%. Entry: `O=C(/C=C/c1ccco1)c1nc2ccccc2n1Cc1ccc(Br)cc1` NOT MET

Quick check: does `O=C(/C=C/c1ccc(F)cc1)c1nc2ccccc2n1Cc1ccc(Br)cc1` have growth under -30%? MET

Does this molecule meet the criterion growth < -30%? CC12OOC(C)(OO1)C2CCC(=O)NCCNc1ccnc2cc(Cl)ccc12 (stereo unspecified) NOT MET

A record lists `CC[C@]12C=CCN3CC[C@@]4(c5ccc(OC)cc5N(C)[C@H]4[C@@](O)(C(=O)OC)[C@@H]1OC(=O)CCCC[P+](c1ccc(OC)cc1)(c1ccc(OC)cc1)c1ccc(OC)cc1)[C@@H]32` . Is its growth below -30%? NOT MET

* * *

tested on: UACC-62 melanoma; assay: NCI-60 one-dose screen, 48 h (100 = growth as untreated, 0 = no growth, -100 = all killed); conditions: 10 µM
About 83,000 compounds went through this panel and 20% of them were active in at least one assay; those are over-represented in the sample as a whole.
In this section, each of the compounds is paired with its reported growth.
A number alone suffices; assume %.

| molecule smiles | unit descriptor | growth |
| --- | --- | --- |
| CC(C)N=C([Se])NC(=O)c1ccccc1 | % | -35.3 |

Could you tell me which growth is on file for `O=C(NC([Se])=NC1CCCCC1)c1ccccc1` ? 9.12

Given `O=C(/C=C/c1ccccc1Cl)c1nc2ccccc2n1Cc1ccc(F)cc1` , state its recorded growth. -93.2

Give its growth value. Item: `CC[C@]12C=CCN3CC[C@@]4(c5ccc(OC)cc5N(C)[C@H]4[C@@](O)(C(=O)OC)[C@@H]1OC(=O)CCCC[P+](C1CCCCC1)(C1CCCCC1)C1CCCCC1)[C@@H]32` -96.9

* * *

Below is a list of entries, each paired with its recorded growth value.
system: IGROV1 ovarian; experiment: NCI-60 one-dose screen, 48 h (100 = growth as untreated, 0 = no growth, -100 = all killed); settings: 10 µM
About 83,000 compounds went through this panel and 20% of them were active in at least one assay; those are over-represented in the sample as a whole.
Record the value in %, omitting the unit from your answer.

Which value of growth has been reported for `C#CCCCN(CCNc1ccnc2cc(Cl)ccc12)C(=O)CCC(=O)O[C@@H]1O[C@@H]2OC3(C)CC[C@H]4[C@H](C)CC[C@@H]([C@H]1C)[C@@]24OO3` in the records? 41.1

# growth lookup, item `COC(=O)c1ccc(-n2cc(CCCN(CCNc3ccnc4cc(Cl)ccc34)C(=O)CCC(=O)O[C@@H]3O[C@@H]4OC5(C)CC[C@H]6[C@H](C)CC[C@@H]([C@H]3C)[C@@]46OO5)nn2)cc1` 40.4

What value of measured growth is listed for `C[C@H]1[C@H](OC(=O)CCC(=O)N(CCCc2cn(-c3ccc([N+](=O)[O-])cc3)nn2)CCNc2ccnc3cc(Cl)ccc23)O[C@@H]2OC3(C)CC[C@H]4[C@H](C)CC[C@@H]1[C@@]24OO3` ? 44.9

I have this molecule here, CCOC(=O)C1=C(Nc2ccccc2)C(=O)OC12C(=O)Nc1ccccc12 (configuration not stated) , and I need its recorded growth. 102

Bench note: what growth did `CC1=C(COCCOC(=O)c2ccc(S(=O)(=O)F)cc2)C2=C(C)C3(CC3)[C@@](C)(O)C(=O)C2=C1` show? -24.3

Give the measured growth of `COC(=O)C[C@](O)(CCC(C)C)C(=O)O[C@H]1C(OC)=C[C@@]23CCCN2CCc2cc4c(cc2[C@@H]13)OCO4` . -19.3

May I ask what growth has been recorded for `C=CCN=C([Se])NC(=O)c1ccc2c(c1)OCO2` ? 75.6

* * *

System: 786-0 renal
Assay: NCI-60 one-dose screen, 48 h
Settings: 10 µM
Method: Cells are grown in 96 well plates and exposed to the test compound for 48 hours. Compounds are tested at a single concentration, which is 10^-5 M for most compounds. The reported endpoint is percent growth (GI% or GIPRCNT), where numbers from 0 - 100% represent growth inhibition, and numbers from -100% - 0 represent cell death. For example, a value of 40 represents 60% growth inhibition. A value of 0 means no net growth occurred over the course of the experiment. […]
This is part of a sample that, as a whole, favours compounds with a hit. Of some 83,000 tested, about 20% had one in any assay. Calls of active or inactive are those of the source. Rule for the calls: active = growth percent below 10; inactive = the rest.
The reply should be one of these categories: 1 for active, 0 for inactive

See these solved cases before continuing.
| compound | target under test | group label |
| --- | --- | --- |
| COC(=O)CCn1c(-c2ccc(-n3cc(-c4ccc(O[C@H]5O[C@@H]6OC7(C)CC[C@H]8[C@H](C)CC[C@@H]([C@H]5C)[C@@]68OO7)cc4)nn3)cc2)nc2ccccc21 | 786-0 renal | 0 |
| CC(=O)Oc1ccccc1C(=O)[Se]C(=NC(C)C)NC(C)C | 786-0 renal | 1 |
| CC1=C(CCC=NNC(N)=O)C2=C(C)C3(CC3)[C@@](C)(O)C(=O)C2=C1 | 786-0 renal | 1 |

For `O=C(/C=C/c1ccc(F)cc1)c1nc2ccccc2n1Cc1ccc(F)cc1` , what call appears in the results of this test? 1

Given `COc1cc2cc(C(=O)N3C[C@@H](CCl)c4c3cc(OC(=O)N3CCN(C(=O)CCC(=O)N5CCN(C)CC5)[C@@H]5CSSC[C@@H]53)c3ccccc43)[nH]c2c(OC)c1OC` , state the outcome it received in this test. 1

Just curious, what result did `COc1cc2cc(C(=O)N3C[C@@H](CCl)c4c3cc(OC(=O)N3CCN(C)[C@@H]5CSSC[C@@H]53)c3ccccc43)[nH]c2c(OC)c1OC` get here? 1

Dear all, I need the recorded test outcome for `O=C(/C=C/c1cccc(Br)c1)c1nc2ccccc2n1Cc1ccc(Br)cc1` , thank you. 1

Tell me the recorded outcome of this test for CC12OOC(C)(OO1)C2CCC(=O)NCCCNc1ccnc2cc(Cl)ccc12 (stereo not drawn) . 1
